# Tested on: VCR resistant murine leukemia (P388/VCR) cells
# protocolNotes: In vivo effect for overcoming resistance to vincristine in VCR resistant murine leukemia (P388/VCR) bearing mice
# Set-up: species or system CDF1 male mice
# setupConditions: Test Example 6, Table 6; same procedure as Test Example 5
Life prolonging rate T/C (%) listing for selected compounds.
Use % as the unit, but write only the number.

CC1=C(C(=O)OCCCc2cccnc2)C(CC(C)CC(C)(C)C)C(C(=O)OCCCc2cccnc2)=C(C)N1 (stereo not drawn) = 148
CC[C@]1(O)C[C@H]2CN(CCc3c([nH]c4ccccc34)[C@@](C(=O)OC)(c3cc4c(cc3OC)N(C=O)[C@H]3[C@@](O)(C(=O)OC)[C@H](OC(C)=O)[C@]5(CC)C=CCN6CC[C@]43[C@@H]65)C2)C1 [VCR, vincristine, reference compound] = 102

Next item in the queue.
Reported Life prolonging rate T/C (%) ( CCCCCC#CC1C(C(=O)OCCCc2cccnc2)=C(C)NC(C)=C1C(=O)OCCCc1cccnc1 ) = 136
